Tested on: Moraxella catarrhalis
Experiment: MIC against Gram-negative bacteria: Moraxella catarrhalis
Format: cell-based
Conditions: Moraxella catarrhalis; 96-well plate, 5×10^5 CFU/mL, 37° C., 10 h
Protocol: 1. Gram-negative bacteria, such as E. coli BL21, Pseudomonas aeruginosa, Klebsiella pneumonia, Enterobacter cloacae, Aeromonas hydrophila, Citrobacter diversus, Moraxella catarrhalis, Proteus mirabilis, Proteus vulgaris, Serratia marcescens, etc were streaked on solid LB medium and cultured respectively. Then, typical clones were picked, inoculated into common liquid LB medium respectively, and cultured at 37° C. with shaking at 185 rpm until the McFarland specific turbidity was 0.5. […]
Entries annotated with measured MIC (μg/mL) M. catarrhalis
READOUT: MIC (μg/mL) M. catarrhalis (µg/mL)

> print(dat)
                                   substance                 target  data.value
 1  PRT117 (DVDECALGRSPCAQGCTNTDGSFHCSCEEGYVLAGEDGTQCQ; listed as Homo sapiens)  Moraxella catarrhalis        12.5
 2  PRT85 (KLHFCDSGPCKNSGFCSERWGSFSCDCPVGFGGKDCQ; listed as Homo sapiens)  Moraxella catarrhalis          50
 3  PRT60 (EVDECSRPNRGGCEQRCLNTLGSYKCSCDPGYELAPDKRRCE; listed as Homo sapiens)  Moraxella catarrhalis          25
 4  PRT94 (DVNECNAHPCFPRVRCINTSPGFRCEACPPGYSGPTHQGVGLAFAKANKQVCT; listed as Homo sapiens)  Moraxella catarrhalis          25
 5  PRT131 (AGHCSTYGHLCRNGGRCREKRRGVTCDCAFSAYDGPFCS; listed as Homo sapiens)  Moraxella catarrhalis          25
 6  PRT142 (PCPGRYLRAGKCAELPNCLDDLGGFACECATGFELGKDGRSCV; listed as Homo sapiens)  Moraxella catarrhalis          25
 7  PRT128 (CLPSYCEHGGECSQSWDTFSCDCLGTGYTGETC; listed as Homo sapiens)  Moraxella catarrhalis        12.5
 8  PRT84 (EAGRCVPGVCRNGGTCTDAPNGGFRCQCPAGGAFEGPRCE; listed as Homo sapiens)  Moraxella catarrhalis          25
 9  PRT107 (DRCLPSYCEHGGECSQSWDTFSCDCLGTGYTGETC; listed as Homo sapiens)  Moraxella catarrhalis        12.5
10  PRT132 (ISDRCLPNYCEHGGECSQSWSTFHCNCTNTGYRGATCH; listed as Homo sapiens)  Moraxella catarrhalis        12.5
11  PRT6 (TRKLCSLDNGDCDQFCHEEQNSVVCSCARGYTLADNGKACI; listed as Homo sapiens)  Moraxella catarrhalis          25
12  PRT111 (DLDECASRSKSGEEDPQPQCQHLCHNYVGGYFCSCRPGYELQEDTHSCQ; listed as Homo sapiens)  Moraxella catarrhalis          25
13  PRT138 (PCHNNATCEDSVDNYTCHCWPGYTGAQCE; listed as Homo sapiens)  Moraxella catarrhalis         100
14  PRT13 (PARSCAEEPCGAGTCKETEGHVICLCPPGYTGEHCN; listed as Homo sapiens)  Moraxella catarrhalis        12.5
15  PRT44 (LYAQVSQSKPCERTGSCFSGRCVNSTCLCDPGWVGDQCQ; listed as Homo sapiens)  Moraxella catarrhalis          25
16  PRT119 (CAPCPNNGRPTLSGTECLCVCQSGTYGENCE; listed as Homo sapiens)  Moraxella catarrhalis          50
